Data credit: patent US20220211678A1

# measurement-description: Plasma levels of (+)-α-dihydrotetrabenazine up to 7 hours after oral dosing of human volunteers (Example 1B)
# Format: in vivo
# run-parameters: 7.5 mg, 7.5 mg oral, 7 h, subject 3 (76 kg)
# Description: Volunteers 1 and 2 were the same as volunteers 1 and 2 in Example 1A described above. […] Blood sample were taken from all volunteers 1 to 3 at 2, 4, 6 and 7 hours after drug administration. In addition, in all volunteers PET scans were initiated at 6 hours after drug administration and these were stopped at 7 hours after drug administration.
measured-property: concentration at 7 h (ng/mL)
Numeric answer only, unit ng/mL assumed.

Task: State its concentration at 7 h: COc1cc2c(cc1OC)[C@H]1C[C@@H](O)[C@H](CC(C)C)CN1CC2 [(+)-α-dihydrotetrabenazine]
Result: 12.8
